Numbers sourced from ChEMBL document CHEMBL3734744.

system: Rattus norvegicus; assay: Antiinflammatory activity in Sprague-Dawley rat assessed as inhibition of carrageenan-induced paw edema at 80 mg/kg, po administered 30 mins prior to carrageenan challenge measured at 1 hr by plethysmometer; type: functional
Everything with inhibition in vivo at 80 mg/kg lower than 10% is false; everything else, including exactly 10%, is true.

// known answers, use as guide
O=C(NC1CCCCC1)Nn1c(CO[N+](=O)[O-])nc2ccccc2c1=O ... false
Cc1ccc(S(=O)(=O)Nn2c(CO[N+](=O)[O-])nc3ccccc3c2=O)cc1 ... false
Cc1nc2ccccc2c(=O)n1NC(=O)NC(C)(C)C ... true

Exercise: Textbook exercise: given the entry `CC(=O)Nc1ccc(S(=O)(=O)Nn2c(C)nc3ccccc3c2=O)cc1` , state whether its inhibition in vivo at 80 mg/kg is greater than or equal to 10%.
Key: true

Exercise: Is it the case that `O=c1c2ccccc2nc(CO[N+](=O)[O-])n1NS(=O)(=O)c1ccccc1` has inhibition in vivo at 80 mg/kg reaching or exceeding 10%?
Key: false

Exercise: Form field: inhibition in vivo at 80 mg/kg at least 10%? Entry: `O=C(Nc1ccccc1)Nn1c(CO[N+](=O)[O-])nc2ccccc2c1=O`
Key: false

Exercise: Has `CC(=O)Nc1ccc(S(=O)(=O)Nn2c(CO[N+](=O)[O-])nc3ccccc3c2=O)cc1` a recorded inhibition in vivo at 80 mg/kg greater than or equal to 10%?
Key: true

Exercise: Is inhibition in vivo at 80 mg/kg at least 10%? Consider `Cc1cnc(NC(=O)C2=C(O)c3ccccc3S(=O)(=O)N2C)s1`
Key: true

* * *

organism: Ovis aries; assay: Selectivity index, ratio of IC50 for ovine COX1 to IC50 for ovine COX2
experimentalReadout: Ratio IC50
Number only, no unit.

Cc1nc2ccccc2c(=O)n1NC(=S)Nc1ccccc1 ... 5.13
O=C(Nc1ccccc1)Nn1c(CO[N+](=O)[O-])nc2ccccc2c1=O ... 4.11
CC(=O)Nc1ccc(S(=O)(=O)Nn2c(C)nc3ccccc3c2=O)cc1 ... 5.16

The record that follows has no Ratio IC50 shown yet.
Lab note: measured Ratio IC50 of `Cc1nc2ccccc2c(=O)n1NS(=O)(=O)c1ccccc1` was 3.5

* * *

tested on: Rattus norvegicus; assay: Gastrointestinal toxicity in Wistar albino rat assessed as ulceration at 10 mg/kg/day, po administered for 3 days measured after 2 hrs post last dose by haematoxylin/eosin staining-based microscopic analysis; assay type: organism-based; conditions: in vivo
experimentalReadout: Activity

Some entries whose results are on file:
CC(=O)Nc1ccc(S(=O)(=O)Nn2c(CO[N+](=O)[O-])nc3ccccc3c2=O)cc1 ... Toxic
O=C(Nc1ccccc1)Nn1c(CO[N+](=O)[O-])nc2ccccc2c1=O ... Non-toxic
Cc1ccc(S(=O)(=O)Nn2c(CO[N+](=O)[O-])nc3ccccc3c2=O)cc1 ... Toxic
O=c1c2ccccc2nc(CO[N+](=O)[O-])n1NS(=O)(=O)c1ccccc1 ... Non-toxic

Now for the compound whose Activity we want.
# `Cc1cnc(NC(=O)C2=C(O)c3ccccc3S(=O)(=O)N2C)s1` with Rattus norvegicus: Activity is Toxic

* * *

tested on: Rattus norvegicus; assay: Antiinflammatory activity in Sprague-Dawley rat assessed as inhibition of carrageenan-induced paw edema at 80 mg/kg, po administered 30 mins prior to carrageenan challenge measured at 3 hrs by plethysmometer relative to meloxicam; format: functional
Documented inhibition in vivo at 80 mg/kg across a set of compounds

Before answering, review these 5 worked examples.
CC(=O)Nc1ccc(S(=O)(=O)Nn2c(CO[N+](=O)[O-])nc3ccccc3c2=O)cc1 ... > 100%
CC(=O)Nc1ccc(S(=O)(=O)Nn2c(C)nc3ccccc3c2=O)cc1 ... 95.7%
O=C(Nc1ccccc1)Nn1c(CO[N+](=O)[O-])nc2ccccc2c1=O ... 82.9%
Cc1nc2ccccc2c(=O)n1NC(=S)Nc1ccccc1 ... 100%
CC(C)(C)NC(=O)Nn1c(CO[N+](=O)[O-])nc2ccccc2c1=O ... 70.6%

Let's switch to this compound now.
Summary: `Cc1nc2ccccc2c(=O)n1NS(=O)(=O)c1ccccc1` , Rattus norvegicus, inhibition in vivo at 80 mg/kg = 77.2%
